Here, each record is paired with measured Ki data.
Target: Kappa-type opioid receptor (Homo sapiens, UniProt P41145)
Sequence (P41145 whole entry): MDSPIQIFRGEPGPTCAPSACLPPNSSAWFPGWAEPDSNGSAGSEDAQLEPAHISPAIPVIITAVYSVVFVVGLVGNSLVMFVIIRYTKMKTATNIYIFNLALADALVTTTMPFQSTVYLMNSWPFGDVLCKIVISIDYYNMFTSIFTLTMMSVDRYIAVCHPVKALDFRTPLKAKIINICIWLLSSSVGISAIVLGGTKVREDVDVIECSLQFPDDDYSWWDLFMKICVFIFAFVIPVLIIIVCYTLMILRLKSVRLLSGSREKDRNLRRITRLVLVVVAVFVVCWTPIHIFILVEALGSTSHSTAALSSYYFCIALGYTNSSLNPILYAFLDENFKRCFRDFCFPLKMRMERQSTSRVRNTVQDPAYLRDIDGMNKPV
Test: Displacement of [125I]IOXY from human kappa opioid receptor expressed in CHO cells coexpressing human recombinant KOP after 2 hrs by liquid scintillation counting
Type: cell-based
assay metric: Ki (µM)

Oc1cccc2c1O[C@@H]1CC[C@H]3C[C@@]21CCN3CCc1ccccc1 :: 0.042
Oc1ccc2c(c1)[C@]13CCN(CCc4ccccc4)[C@H](CC[C@H]1O2)C3 (racemic) :: 0.098
Oc1ccc2c(c1)[C@@]13CCN(CCc4ccccc4)[C@@H](CC[C@H]1O2)C3 :: 0.102
CN1CC[C@]23C[C@H]1CC[C@H]2Oc1c(O)cccc13 (racemic) :: 7.5
Oc1cccc2c1O[C@@H]1CC[C@@H]3C[C@]21CCN3CCc1ccccc1 (racemic) :: 0.171
Oc1ccc2c(c1)[C@]13CCN(CCc4ccccc4)[C@H](CC[C@@H]1O2)C3 :: 0.199
